- Tested on: HCT-116
- Run description: Cytotoxicity against human HCT116 assessed as reduction in cell viability after 48 hrs by MTT assay
- Assay type: functional, cell-based
- Run conditions: HCT-116, 48 h
pIC50: −log10 of the molar value.
Is pIC50 at least 5? Then YES. If not, NO.

[
  {
    "Structure string": "CCN(CC)c1ccc2cc(C(=O)c3ccc(N4CCN(C(=O)CN5CCN(Cc6ccc(C(F)(F)F)cc6)CC5)CC4)cc3)oc2c1",
    "Discrete label": "NO"
  },
  {
    "Structure string": "C#CCN1CCN(CC(=O)N2CCN(c3ccc(C(=O)c4cc5ccc(N(CC)CC)cc5o4)cc3)CC2)CC1",
    "Discrete label": "NO"
  },
  {
    "Structure string": "CCN(CC)c1ccc2cc(C(=O)c3ccc(N4CCN(C(=O)CN5CCN(CC(C)=O)CC5)CC4)cc3)oc2c1",
    "Discrete label": "NO"
  },
  {
    "Structure string": "CCN(CC)c1ccc2cc(C(=O)c3ccc(N4CCN(C(=O)CN5CCN(C(=O)c6ccc(C(F)(F)F)cc6)CC5)CC4)cc3)oc2c1",
    "Discrete label": "NO"
  },
  {
    "Structure string": "CCN(CC)c1ccc2cc(C(=O)c3ccc(N4CCN(C(=O)CN5CCNCC5)CC4)cc3)oc2c1",
    "Discrete label": "YES"
  },
  {
    "Structure string": "CCN(CC)c1ccc2cc(C(=O)c3ccc(N4CCN(C(=O)CN5CCN(CC(=O)c6ccc(F)cc6)CC5)CC4)cc3)oc2c1",
    "Discrete label": "NO"
  }
]

====

- System: HCT-116
- Run description: Cytotoxicity against human HCT116 assessed as reduction in cell viability after 48 hrs by MTT assay
- Format: functional, cell-based
- Run conditions: HCT-116, 48 h

[
  {
    "Structure string": "CCN(CC)c1ccc2cc(C(=O)c3ccc(N4CCN(C(=O)CN5CCN(Cc6ccc(C#N)cc6)CC5)CC4)cc3)oc2c1",
    "Lt gt eq": ">",
    "IC50 [µM]": 40
  },
  {
    "Structure string": "O=c1[nH]cc(F)c(=O)[nH]1",
    "Lt gt eq": "=",
    "IC50 [µM]": 15.5
  },
  {
    "Structure string": "CCN(CC)c1ccc2cc(C(=O)c3ccc(N4CCN(C(=O)CN5CCN(S(=O)(=O)C6CC6)CC5)CC4)cc3)oc2c1",
    "Lt gt eq": ">",
    "IC50 [µM]": 40
  },
  {
    "Structure string": "CCN(CC)c1ccc2cc(C(=O)c3ccc(N4CCN(C(=O)CN5CCN(CC(=O)c6ccccc6)CC5)CC4)cc3)oc2c1",
    "Lt gt eq": "=",
    "IC50 [µM]": 27.1
  }
]

====

- Tested on: L02
- Run description: Cytotoxicity against human L02 assessed as reduction in cell viability after 48 hrs by MTT assay
- Assay type: cell-based
- Run conditions: L02, 48 h
Listed compounds paired with reported IC50

[
  {
    "Structure string": "CCN(CC)c1ccc2cc(C(=O)c3ccc(N4CCN(C(=O)CN5CCN(S(=O)(=O)c6ccc(C#N)cc6)CC5)CC4)cc3)oc2c1",
    "Readout unit": "µM",
    "Lt gt eq": "=",
    "IC50": 44.1
  },
  {
    "Structure string": "CCN(CC)c1ccc2cc(C(=O)c3ccc(N4CCN(C(=O)CN5CCNCC5)CC4)cc3)oc2c1",
    "Readout unit": "µM",
    "Lt gt eq": ">",
    "IC50": 100
  },
  {
    "Structure string": "CCOC(=O)CN1CCN(CC(=O)N2CCN(c3ccc(C(=O)c4cc5ccc(N(CC)CC)cc5o4)cc3)CC2)CC1",
    "Readout unit": "µM",
    "Lt gt eq": "=",
    "IC50": 68.7
  },
  {
    "Structure string": "CCN(CC)c1ccc2cc(C(=O)c3ccc(N4CCN(C(=O)CN5CCN(C(=O)c6ccc(F)cc6)CC5)CC4)cc3)oc2c1",
    "Readout unit": "µM",
    "Lt gt eq": ">",
    "IC50": 100
  }
]

====

- System: HCT-116
- Run description: Cytotoxicity against human HCT116 assessed as reduction in cell viability after 48 hrs by MTT assay
- Assay type: functional, cell-based
- Run conditions: HCT-116, 48 h
Listed compounds paired with reported IC50

[
  {
    "Structure string": "CCN(CC)c1ccc2cc(C(=O)c3ccc(N4CCN(C(=O)CN5CCN(C(=O)CCl)CC5)CC4)cc3)oc2c1",
    "IC50": "> 40 µM"
  },
  {
    "Structure string": "CCN(CC)c1ccc2cc(C(=O)c3ccc(N4CCN(C(=O)CN5CCN(S(=O)(=O)c6ccc(F)cc6)CC5)CC4)cc3)oc2c1",
    "IC50": "> 40 µM"
  },
  {
    "Structure string": "CCN(CC)c1ccc2cc(C(=O)c3ccc(N4CCN(C(=O)CN5CCN(C(=O)c6cc(Cl)cc(Cl)c6)CC5)CC4)cc3)oc2c1",
    "IC50": "28 µM"
  },
  {
    "Structure string": "CCN(CC)c1ccc2cc(C(=O)c3ccc(N4CCN(C(=O)CN5CCN(C(=O)c6ccc(F)cc6)CC5)CC4)cc3)oc2c1",
    "IC50": "> 40 µM"
  },
  {
    "Structure string": "CCN(CC)c1ccc2cc(C(=O)c3ccc(N4CCN(C(=O)CN5CCN(S(=O)(=O)c6ccc(C(F)(F)F)cc6)CC5)CC4)cc3)oc2c1",
    "IC50": "32.2 µM"
  },
  {
    "Structure string": "CCN(CC)c1ccc2cc(C(=O)c3ccc(N4CCN(C(=O)CN5CCN(CC(=O)c6ccc(C#N)cc6)CC5)CC4)cc3)oc2c1",
    "IC50": "> 40 µM"
  },
  {
    "Structure string": "CCOC(=O)CN1CCN(CC(=O)N2CCN(c3ccc(C(=O)c4cc5ccc(N(CC)CC)cc5o4)cc3)CC2)CC1",
    "IC50": "> 40 µM"
  }
]

====

- System: L02
- Run description: Cytotoxicity against human L02 assessed as reduction in cell viability after 48 hrs by MTT assay
- Type: cell-based
- Run conditions: L02, 48 h
pIC50: −log10 of the molar value.
Readout: pIC50

[
  {
    "Structure string": "CCN(CC)c1ccc2cc(C(=O)c3ccc(N4CCN(C(=O)CN5CCN(C(=O)c6ccc(C(F)(F)F)cc6)CC5)CC4)cc3)oc2c1",
    "Lt gt eq": "=",
    "Quantitative readout": 4.85
  },
  {
    "Structure string": "CCN(CC)c1ccc2cc(C(=O)c3ccc(N4CCN(C(=O)CN5CCN(Cc6ccc(/C=C/C(=O)OC)cc6)CC5)CC4)cc3)oc2c1",
    "Lt gt eq": "<",
    "Quantitative readout": 4.00
  },
  {
    "Structure string": "CCN(CC)c1ccc2cc(C(=O)c3ccc(N4CCN(C(=O)CN5CCN(Cc6ccc(F)c(F)c6)CC5)CC4)cc3)oc2c1",
    "Lt gt eq": "=",
    "Quantitative readout": 4.99
  },
  {
    "Structure string": "CCN(CC)c1ccc2cc(C(=O)c3ccc(N4CCN(C(=O)CN5CCN(S(=O)(=O)C6CC6)CC5)CC4)cc3)oc2c1",
    "Lt gt eq": "<",
    "Quantitative readout": 4.00
  }
]

====

- Test system: L02
- Run description: Cytotoxicity against human L02 assessed as reduction in cell viability after 48 hrs by MTT assay
- Assay type: cell-based
- Run conditions: L02, 48 h
pIC50: −log10 of the molar value.
Listed compounds paired with reported pIC50

[
  {
    "Structure string": "CCN(CC)c1ccc2cc(C(=O)c3ccc(N4CCN(C(=O)CN5CCN(S(=O)(=O)c6ccc(C(F)(F)F)cc6)CC5)CC4)cc3)oc2c1",
    "Lt gt eq": "=",
    "pIC50": 4.77
  },
  {
    "Structure string": "CCN(CC)c1ccc2cc(C(=O)c3ccc(N4CCN(C(=O)CN5CCN(CC(=O)c6ccc(C#N)cc6)CC5)CC4)cc3)oc2c1",
    "Lt gt eq": "<",
    "pIC50": 4.00
  },
  {
    "Structure string": "CCN(CC)c1ccc2cc(C(=O)c3ccc(N4CCN(C(=O)CN5CCN(C(=O)CCl)CC5)CC4)cc3)oc2c1",
    "Lt gt eq": "=",
    "pIC50": 4.68
  },
  {
    "Structure string": "CCN(CC)c1ccc2cc(C(=O)c3ccc(N4CCN(C(=O)CN5CCN(CC(C)=O)CC5)CC4)cc3)oc2c1",
    "Lt gt eq": "<",
    "pIC50": 4.00
  },
  {
    "Structure string": "CCN(CC)c1ccc2cc(C(=O)c3ccc(N4CCN(C(=O)CN5CCN(CC(=O)c6ccc(C)cc6)CC5)CC4)cc3)oc2c1",
    "Lt gt eq": "=",
    "pIC50": 4.44
  },
  {
    "Structure string": "CCN(CC)c1ccc2cc(C(=O)c3ccc(N4CCN(C(=O)CN5CCN(CC(=O)c6ccccc6)CC5)CC4)cc3)oc2c1",
    "Lt gt eq": "=",
    "pIC50": 4.27
  },
  {
    "Structure string": "CCN(CC)c1ccc2cc(C(=O)c3ccc(N4CCN(C(=O)CN5CCN(CC(=O)c6ccc(F)cc6)CC5)CC4)cc3)oc2c1",
    "Lt gt eq": "=",
    "pIC50": 4.16
  },
  {
    "Structure string": "CCN(CC)c1ccc2cc(C(=O)c3ccc(N4CCN(C(=O)CN5CCN(Cc6ccc(C(F)(F)F)cc6)CC5)CC4)cc3)oc2c1",
    "Lt gt eq": "=",
    "pIC50": 5.18
  },
  {
    "Structure string": "CCN(CC)c1ccc2cc(C(=O)c3ccc(N4CCN(C(=O)CN5CCN(S(=O)(=O)c6ccc(F)cc6)CC5)CC4)cc3)oc2c1",
    "Lt gt eq": "=",
    "pIC50": 5.03
  },
  {
    "Structure string": "CCN(CC)c1ccc2cc(C(=O)c3ccc(N4CCN(C(=O)CN5CCN(Cc6ccc(C#N)cc6)CC5)CC4)cc3)oc2c1",
    "Lt gt eq": "=",
    "pIC50": 4.53
  },
  {
    "Structure string": "CCN(CC)c1ccc2cc(C(=O)c3ccc(N4CCN(C(=O)CN5CCN(CC(=O)c6ccc(OC)cc6)CC5)CC4)cc3)oc2c1",
    "Lt gt eq": "<",
    "pIC50": 4.00
  },
  {
    "Structure string": "CCN(CC)c1ccc2cc(C(=O)c3ccc(N4CCN(C(=O)CN5CCN(C(=O)c6cc(Cl)cc(Cl)c6)CC5)CC4)cc3)oc2c1",
    "Lt gt eq": "<",
    "pIC50": 4.00
  },
  {
    "Structure string": "CCN(CC)c1ccc2cc(C(=O)c3ccc(N4CCN(C(=O)CN5CCN(C(=O)/C=C/c6ccccc6)CC5)CC4)cc3)oc2c1",
    "Lt gt eq": "<",
    "pIC50": 4.00
  },
  {
    "Structure string": "CCN(CC)c1ccc2cc(C(=O)c3ccc(N4CCN(C(=O)CN5CCN(S(=O)(=O)c6ccc(OC(F)(F)F)cc6)CC5)CC4)cc3)oc2c1",
    "Lt gt eq": "=",
    "pIC50": 4.46
  },
  {
    "Structure string": "C#CCN1CCN(CC(=O)N2CCN(c3ccc(C(=O)c4cc5ccc(N(CC)CC)cc5o4)cc3)CC2)CC1",
    "Lt gt eq": "<",
    "pIC50": 4.00
  },
  {
    "Structure string": "CCN(CC)c1ccc2cc(C(=O)c3ccc(N4CCN(C(=O)CN5CCN(CC(=O)c6ccc7ccccc7c6)CC5)CC4)cc3)oc2c1",
    "Lt gt eq": "<",
    "pIC50": 4.00
  }
]
